# maps each entry to its MIC
tested on: Streptococcus pneumoniae; test: Antibacterial activity against Streptococcus pneumoniae ATCC 49619 by CLSI M07-A8 method; type: functional
property.name: MIC (µg/mL)

                            chemical_smiles  numeric_value
0  CN(C)c1cc(NC(=O)CNC(C)(C)C)c(O)c2c1C[C@H]1C[C@H]3[C@H](N(C)C)C(O)=C(C(N)=O)C(=O)[C@@]3(O)C(O)=C1C2=O          0.016
1  CN(C)[C@@H]1C(O)=C(C(N)=O)C(=O)[C@@]2(O)C(O)=C3C(=O)c4c(O)c(NCC(C)(C)CN5CCCC5)nc(Cl)c4C[C@H]3C[C@@H]12.Cl          0.031
2  COCCNc1nc(Cl)c2c(c1O)C(=O)C1=C(O)[C@]3(O)C(=O)C(C(N)=O)=C(O)[C@@H](N(C)C)[C@@H]3C[C@@H]1C2.Cl.Cl.Cl          0.063
3  CN(C)[C@@H]1C(O)=C(C(N)=O)C(=O)[C@@]2(O)C(O)=C3C(=O)c4c(O)cnc(Cl)c4C[C@H]3C[C@@H]12.Cl              1

----------
# maps each entry to its MIC
tested on: Staphylococcus aureus; test: Antibacterial activity against tetracycline-resistant Staphylococcus aureus isolate 158 harboring tet(K) gene by CLSI M07-A8 method; type: functional
property.name: MIC

In [3]: df
Out[3]:
                            chemical_smiles       result
0  CCCc1nc(N(C)C)c2c(c1O)C(=O)C1=C(O)[C@]3(O)C(=O)C(C(N)=O)=C(O)[C@@H](N(C)C)[C@@H]3C[C@@H]1C2.Cl.Cl      1 µg/mL
1  CCCNc1nc(F)c2c(c1O)C(=O)C1=C(O)[C@]3(O)C(=O)C(C(N)=O)=C(O)[C@@H](N(C)C)[C@@H]3C[C@@H]1C2.Cl.Cl   0.25 µg/mL
2  CN(C)[C@@H]1C(O)=C(C(N)=O)C(=O)[C@@]2(O)C(O)=C3C(=O)c4c(O)cnc(-c5ccccc5)c4C[C@H]3C[C@@H]12.Cl.Cl      1 µg/mL
3  COCCNc1nc(Cl)c2c(c1O)C(=O)C1=C(O)[C@]3(O)C(=O)C(C(N)=O)=C(O)[C@@H](N(C)C)[C@@H]3C[C@@H]1C2.Cl.Cl.Cl      1 µg/mL
4  CN(C)[C@@H]1C(O)=C(C(N)=O)C(=O)[C@@]2(O)C(O)=C3C(=O)c4c(O)cnc(Cl)c4C[C@H]3C[C@@H]12.Cl     32 µg/mL
5  CN(C)[C@@H]1C(O)=C(C(N)=O)C(=O)[C@@]2(O)C(O)=C3C(=O)c4c(O)c(NC(=O)CNC(C)(C)C)nc(Cl)c4C[C@H]3C[C@@H]12.Cl.Cl.Cl     32 µg/mL
6  CN(C)CC(C)(C)CNc1nc(Cl)c2c(c1O)C(=O)C1=C(O)[C@]3(O)C(=O)C(C(N)=O)=C(O)[C@@H](N(C)C)[C@@H]3C[C@@H]1C2.Cl  0.125 µg/mL
7  Cc1ncc2c(c1O)C(=O)C1=C(O)[C@]3(O)C(=O)C(C(N)=O)=C(O)[C@@H](N(C)C)[C@@H]3C[C@@H]1C2.Cl.Cl     32 µg/mL
8  CC(C)Nc1nc(Cl)c2c(c1O)C(=O)C1=C(O)[C@]3(O)C(=O)C(C(N)=O)=C(O)[C@@H](N(C)C)[C@@H]3C[C@@H]1C2.Cl.Cl.Cl      2 µg/mL
